Entry source: ChEMBL document CHEMBL3045972

Below is a list of entries, each paired with its recorded inhibition in vivo at 10 mg/kg value.
- Test system: Rattus norvegicus
- Method description: Antiestrogenic activity in Rattus norvegicus Sprague-Dawley (rat) assessed as inhibition of ethynylestradiol-induced uterine weight at 10 mg/kg, po qd administered 3 days measured on day 31 relative to control
- Assay type: functional
- Test parameters: Rattus norvegicus, Sprague-Dawley, po
Reply with just the number (in %).

{"Molecule": "CCOC(=O)C(C)Oc1ccc([C@@H]2c3ccc(OC)cc3OC(C)(C)[C@H]2c2ccccc2)cc1 (relative stereo)", "inhibition in vivo at 10 mg/kg, %": 3.98}
{"Molecule": "COc1ccc2c(c1)OC(C)(C)[C@H](c1ccccc1)[C@@H]2c1ccc(OC(C)C(=O)O)cc1 (relative stereo)", "inhibition in vivo at 10 mg/kg, %": 3.8}
{"Molecule": "COc1ccc2c(c1)OC(C)(C)[C@H](c1ccccc1)[C@H]2c1ccc(OC(C)C(=O)NN)cc1 (single isomer, unassigned; (+))", "inhibition in vivo at 10 mg/kg, %": 6.21}
{"Molecule": "CCOC(=O)C(C)Oc1ccc([C@H]2c3ccc(OC)cc3OC(C)(C)[C@@H]2c2ccccc2)cc1 (single isomer, unassigned; (+))", "inhibition in vivo at 10 mg/kg, %": 14.3}
{"Molecule": "COc1ccc2c(c1)OC(C)(C)[C@H](c1ccccc1)[C@H]2c1ccc(OC(C)C(=O)O)cc1 (single isomer, unassigned; (+))", "inhibition in vivo at 10 mg/kg, %": 16.1}
{"Molecule": "COc1ccc2c(c1)OC(C)(C)[C@@H](c1ccccc1)[C@@H]2c1ccc(OC(C)C(=O)O)cc1 (relative stereo)", "inhibition in vivo at 10 mg/kg, %": 10.8}
{"Molecule": "COc1ccc2c(c1)OC(C)(C)[C@H](c1ccccc1)[C@@H]2c1ccc(OC(C)C(=O)NN)cc1 (relative stereo)", "inhibition in vivo at 10 mg/kg, %": 1.07}

Value of inhibition in vivo at 10 mg/kg reported for the molecule CCOC(=O)C(C)Oc1ccc([C@@H]2c3ccc(OC)cc3OC(C)(C)[C@@H]2c2ccccc2)cc1 (relative stereo) is 3.71
